target-entity: T1, AAV9 (adeno-associated virus 9, Assembled 60-mer capsid of VP1/VP2/VP3 (nested products of one cap gene), amine-coupled to a CM5 chip; the letters give one VP1 subunit only.)
T1 construct: also called adeno-associated virus serotype 9
test-summary: SPR, AAV amine-coupled to CM5 chip
For each of the binders below, state its kon.
Give bare numbers, in M⁻¹ s⁻¹.

Lab note: A4-C5 (bispecific antibody) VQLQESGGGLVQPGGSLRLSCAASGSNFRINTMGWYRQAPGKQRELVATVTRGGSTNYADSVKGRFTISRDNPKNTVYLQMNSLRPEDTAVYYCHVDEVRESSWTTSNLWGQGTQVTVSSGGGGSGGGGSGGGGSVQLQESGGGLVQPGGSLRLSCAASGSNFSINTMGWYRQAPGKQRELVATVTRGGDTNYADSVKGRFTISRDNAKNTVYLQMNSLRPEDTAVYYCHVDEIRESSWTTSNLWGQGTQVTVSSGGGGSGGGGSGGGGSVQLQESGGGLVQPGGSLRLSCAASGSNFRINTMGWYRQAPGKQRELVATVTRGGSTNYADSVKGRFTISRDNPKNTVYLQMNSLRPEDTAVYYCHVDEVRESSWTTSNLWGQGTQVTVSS gave kon of 119000

Lab note: A4-C4 (bispecific antibody) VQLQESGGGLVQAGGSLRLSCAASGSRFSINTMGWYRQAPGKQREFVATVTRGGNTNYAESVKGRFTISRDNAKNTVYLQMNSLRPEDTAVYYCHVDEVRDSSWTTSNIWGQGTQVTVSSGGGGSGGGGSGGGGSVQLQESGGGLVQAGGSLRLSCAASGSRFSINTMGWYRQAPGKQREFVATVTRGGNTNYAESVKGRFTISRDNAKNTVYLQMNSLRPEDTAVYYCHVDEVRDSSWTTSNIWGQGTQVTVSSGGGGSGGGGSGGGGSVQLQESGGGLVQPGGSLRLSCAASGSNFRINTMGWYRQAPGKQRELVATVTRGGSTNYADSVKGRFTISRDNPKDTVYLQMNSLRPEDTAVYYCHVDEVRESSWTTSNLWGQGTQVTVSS gave kon of 165000

Continuing:
Lab note: A4-C1 (VHH) VQLQESGGGLVQPGGSLRLSCAASGSGFSINTMGWYRQAPGKQRELVATVTRDGSTNYADFVKGRFTISRDNAKNTVYLQMNSLRPEDTAVYYCHLDEVRESSWTTSNLWGQGTQVTVSSGGGGSGGGGSGGGGSVQLQESGGGLVQPGGSLRLSCAASGSGFSINTMGWYRQAPGKQRELVATVTRDGSTNYADFVKGRFTISRDNAKNTVYLQMNSLRPEDTAVYYCHLDEVRESSWTTSNLWGQGTQVTVSSGGGGSGGGGSGGGGSVQLQESGGGLVQPGGSLRLSCAASGSGFSINTMGWYRQAPGKQRELVATVTRDGSTNYADFVKGRFTISRDNAKNTVYLQMNSLRPEDTAVYYCHLDEVRESSWTTSNLWGQGTQVTVSS gave kon of 9690
